- Test system: MG-63 cells
- procedure_summary: Cytotoxicity test against osteoblast (MTT)
- Type: cell-based, human
- condition_description: 0.33 μM compound
reported_property: relative absorbance (MTT) relative to control (set as 100)

molecule	experimental_system	data_value
CO/C=C(/C(=O)OC)c1ccc(Cl)cc1COc1ccc(N2CCOCC2)cn1	MG-63 cells	113
CO/C=C(/C(=O)OC)c1ccccc1COc1cccc(N2CCN(C)CC2)c1	MG-63 cells	104
CO/C=C(/C(=O)OC)c1ccccc1COc1cccc(N2CCCCC2)c1	MG-63 cells	105
CO/C=C(/C(=O)OC)c1ccccc1COc1ccc(N2CCCCC2)cc1	MG-63 cells	96
CO/C=C(/C(=O)OC)c1ccccc1COc1cccc(CN2CCOCC2)c1	MG-63 cells	83
CO/C=C(/C(=O)OC)c1ccc(Cl)cc1COc1cccc(N2CCOCC2)c1	MG-63 cells	101

* * *

- Tested on: osteoclast (TRAP-positive multinuclear cell) formation
- procedure_summary: Inhibitory effect on osteoclast formation (TRAP staining)
- Type: cell-based, mice
- condition_description: Mus musculus, Osteoclast; 1 μM (Table 4b); compared to control; read-out: Osteoclast formation inhibitory effects (%)
- Description: The inhibitory activities of the alpha-arylmethoxyacrylate derivatives prepared in the above Examples on the proliferation of osteoclasts were examined as follows. First, a bone marrow sample containing osteoclast pregenitor cells was isolated as follows. […]
inhibition at 1 µM values for the molecules below.
reported_property: inhibition at 1 µM (%)

molecule	experimental_system	data_value
CO/C=C(/C(=O)OC)c1ccccc1COc1cccc(N2CCCC2)c1	osteoclast (TRAP-positive multinuclear cell) formation	95
CO/C=C(/C(=O)OC)c1ccc(Cl)cc1COc1cccc(N2CCOCC2)c1	osteoclast (TRAP-positive multinuclear cell) formation	100
CO/C=C(/C(=O)OC)c1ccccc1COc1ccc(N2CCOCC2)cc1F	osteoclast (TRAP-positive multinuclear cell) formation	100
CO/C=C(/C(=O)OC)c1ccccc1COc1ccc(NCC(C)C)cc1	osteoclast (TRAP-positive multinuclear cell) formation	95
CO/C=C(/C(=O)OC)c1ccccc1COc1cccc(NCCC(C)C)c1	osteoclast (TRAP-positive multinuclear cell) formation	94

* * *

Reduction (%) of the resorption pit area of osteoclasts values for the molecules below.
- System: osteoclasts
- procedure_summary: Inhibitory effect on resorption activity of osteoclast (resorption pit area on calcium phosphate-coated plate)
- Format: cell-based, mice
- condition_description: 0.3 uM, compared to control
- Protocol: After finishing culture, the plate was washed with distilled water, and 50 μl/well of 5% sodium hypochlorite was added to the plate. The plate was let alone for 5 min, washed again with distilled water to remove the adherent cells, and dried at room temperature. Then, the area of formed resorption pits was calculated by means of Image Pro Plus software (Media Cybernetics Ver. 3.0).
reported_property: Reduction (%) of the resorption pit area of osteoclasts

molecule	data_value
CO/C=C(/C(=O)OC)c1ccc(Cl)cc1COc1ccc(OCCOC)cc1	100
CCOc1ccc(OCc2ccccc2/C(=C\OC)C(=O)OC)cc1	100
CCC(C)Oc1ccc(OCc2cc(F)ccc2/C(=C\OC)C(=O)OC)cc1 (stereo not shown)	0
CCCCCCOc1cccc(OCc2ccccc2/C(=C\OC)C(=O)OC)c1	42
CCCCCCOc1cccc(/C(C)=N/OCc2ccccc2/C(=C\OC)C(=O)OC)c1	41
C=CCOc1cccc(OCc2ccccc2/C(=C\OC)C(=O)OC)c1	96
CO/C=C(/C(=O)OC)c1ccccc1COc1ccc(C(C)F)cc1 (stereo not shown)	0
CO/C=C(/C(=O)OC)c1ccccc1COc1ccc(OC2CCCC2)cc1	90
CCCCCCOc1ccc(OCc2cc(Cl)ccc2/C(=C\OC)C(=O)OC)cc1	30
C=CCOc1ccc(OCc2cc(Cl)ccc2/C(=C\OC)C(=O)OC)cc1	100
CCC(C)Oc1ccc(OCc2ccccc2/C(=C\OC)C(=O)OC)cc1 (stereo not shown)	99
CO/C=C(/C(=O)OC)c1ccccc1COc1ccc(C2OCCCO2)cc1	94
CCC(C)Oc1cccc(OCc2ccccc2/C(=C\OC)C(=O)OC)c1 (stereo not shown)	94
C=CCCOc1ccc(OCc2ccccc2/C(=C\OC)C(=O)OC)cc1	97
CO/C=C(/C(=O)OC)c1ccccc1COc1cccc(OCC2CC2)c1	97
CO/C=C(/C(=O)OC)c1ccc(Cl)cc1COc1ccc(OCC=C(C)C)cc1	100
CCCCCCCCc1cccc(OCc2ccccc2/C(=C\OC)C(=O)OC)c1	0.00
CO/C=C(/C(=O)OC)c1ccccc1COc1ccc(OCC(C)C)cc1	100
C=CCOc1ccc(OCc2ccccc2/C(=C\OC)C(=O)OC)cc1	86

* * *

Vd values for the molecules below.
- procedure_summary: In vivo pharmacokinetics using female mice (serum concentration, HPLC)
- condition_description: mouse, serum, iv, I.V., read-out: Vd (volume of distribution)

molecule	Vd / L/kg
CO/C=C(/C(=O)OC)c1ccccc1COc1cccc(N2CCCCC2)c1 [Compound No. 388]	0.0274
CO/C=C(/C(=O)OC)c1ccc(Cl)cc1COc1ccc(OCCOC)cc1 [Compound No. 274]	0.0503
CO/C=C(/C(=O)OC)c1ccccc1COc1cccc(CN2CCOCC2)c1 [Compound No. 404]	0.0462
CO/C=C(/C(=O)OC)c1ccccc1COc1cccc(N2CCCC2)n1 [Compound No. 415]	0.027

* * *

Reduction (%) of the resorption pit area of osteoclasts values for the molecules below.
- Tested on: osteoclasts
- procedure_summary: Inhibitory effect on resorption activity of osteoclast (resorption pit area on calcium phosphate-coated plate)
- Format: cell-based, mice
- condition_description: 0.3 uM, compared to control
reported_property: Reduction (%) of the resorption pit area of osteoclasts

molecule	experimental_system	data_value
C=CCCCCCCOc1cccc(OCc2ccccc2/C(=C\OC)C(=O)OC)c1 [compound 197]	osteoclasts	100
CO/C=C(/C(=O)OC)c1ccccc1COc1cccc(C(OC)OC)c1 [compound 133]	osteoclasts	75
CO/C=C(/C(=O)OC)c1ccc(Cl)cc1COc1ccc(OCC2CC2)cc1	osteoclasts	100
CCCOc1ccc(OCc2ccccc2/C(=C\OC)C(=O)OC)cc1 [compound 192]	osteoclasts	100
CO/C=C(/C(=O)OC)c1ccc(Cl)cc1COc1cccc(CO)c1 [compound 262]	osteoclasts	93
CO/C=C(/C(=O)OC)c1ccccc1COc1cccc(C(F)CC(C)=O)c1 (stereo not drawn) [compound 206]	osteoclasts	97
CCCCCCCOc1cccc(OCc2ccccc2/C(=C\OC)C(=O)OC)c1 [compound 201]	osteoclasts	100
CO/C=C(/C(=O)OC)c1ccccc1COc1cccc(OCCN2CCOCC2)c1 [compound 234]	osteoclasts	95
CO/C=C(/C(=O)OC)c1ccccc1COc1cccc(OC2CCCC2)c1 [compound 222]	osteoclasts	100.0

* * *

inhibition at 1 µM values for the molecules below.
- Tested on: osteoclast (TRAP-positive multinuclear cell) formation
- procedure_summary: Inhibitory effect on osteoclast formation (TRAP staining)
- Type: cell-based, mice
- condition_description: Mus musculus, Osteoclast; 1 μM (Table 4b); compared to control; read-out: Osteoclast formation inhibitory effects (%)
reported_property: inhibition at 1 µM (%)

molecule	data_value
CO/C=C(/C(=O)OC)c1ccc(Cl)cc1COc1cccc(N2CCCCC2)c1 [compound 387]	100
CO/C=C(/C(=O)OC)c1ccccc1COc1cccc(CN2CCOCC2)c1 [Compound No. 404]	63
CO/C=C(/C(=O)OC)c1ccccc1COc1ccc(NCC(C)C)cc1F [Compound No. 425]	100
CO/C=C(/C(=O)OC)c1ccccc1COc1cccc(N2CCCCC2)c1 [Compound No. 388]	100
C=CCNc1cccc(OCc2ccccc2/C(=C\OC)C(=O)OC)c1 [compound 381]	67
CO/C=C(/C(=O)OC)c1ccccc1COc1cccc(N2CCOCC2)c1 [compound 349]	100
C=CCN(CC=C)c1ccc(OCc2ccccc2/C(=C\OC)C(=O)OC)cc1F [compound 367]	87
CO/C=C(/C(=O)OC)c1ccc(Cl)cc1COc1cccc(N(C)c2ccccc2)c1 [compound 390]	99
CO/C=C(/C(=O)OC)c1ccc(Cl)cc1COc1ccc(N2CCOCC2)cn1 [compound 394]	100
CO/C=C(/C(=O)OC)c1ccccc1COc1cccc(N2CCCCC2)n1 [compound 413]	100
CO/C=C(/C(=O)OC)c1ccccc1COc1ccc(NCC2CC2)c(F)c1 [compound 372]	91
CO/C=C(/C(=O)OC)c1ccccc1COc1ccc(N(C)CC2CC2)cc1F [compound 424]	100
CO/C=C(/C(=O)OC)c1ccccc1COc1ccc(NCC2CC2)cc1F [compound 423]	100
CO/C=C(/C(=O)OC)c1ccccc1COc1cccc(N2CCCC2)n1 [Compound No. 415]	100
CO/C=C(/C(=O)OC)c1ccccc1COc1ccc(N(C)c2ccccc2)cc1 [compound 400]	99
CO/C=C(/C(=O)OC)c1ccccc1COc1cccc(N2CCOCC2)n1 [compound 348]	99
CO/C=C(/C(=O)OC)c1ccccc1COc1ccc(N2CCCCC2)cc1 [compound 399]	100
CO/C=C(/C(=O)OC)c1ccccc1COc1cccc(N2CCN(C)CC2)c1 [compound 391]	50
